# credit: ChEMBL document CHEMBL4396916

test system: MDA-MB-468; assay: Growth inhibition of human MDA-MB-468 cells at 10 uM incubated for 48 hrs by sulforhodamine B assay relative to control; format: functional; conditions: MDA-MB-468, 48 h, read-out: GI
PROPERTY NAME: inhibition of growth at 10 µM
Remember to put the unit after the number in your answer.

| CHEMICAL SMILES | inhibition of growth at 10 µM |
| --- | --- |
| CCOC(=O)c1ccc(Nc2ccnc(SCC(=O)c3ccc([N+](=O)[O-])cc3)n2)cc1 | 51% |
| O=C(CSc1nccc(Nc2ccc(N3CCOCC3)cc2)n1)c1ccc(F)cc1 | 38% |
| COc1ccc(C(=O)CSc2nccc(Nc3ccc(N4CCOCC4)cc3)n2)cc1 | 13% |
| CC(=O)c1cccc(Nc2ccnc(SCC(=O)c3ccc(C(F)(F)F)cc3)n2)c1 | 16% |
| CC(=O)c1ccc(Nc2ccnc(SCC(=O)c3ccc(Cl)cc3)n2)cc1 | 27% |

Note: attention shifts to another entry.
Task: I am curious: what inhibition of growth at 10 µM value has been reported for "COc1ccc(C(=O)CSc2nccc(Nc3cccc(C(C)=O)c3)n2)cc1" ?
Result: 34%
